- experimental-target: human recombinant HDAC6 (Homo sapiens)
- assay-procedure: HDAC6 enzyme activity inhibition assay (HDAC Fluorimetric Drug Discovery Kit)
- reported-conditions: same protocol as the HDAC1 enzyme activity test
metric: log10 IC50 (log10 of the value in nM)

1. CCS(=O)(=O)N(Cc1ccc(-c2nnc(C(F)F)o2)cc1F)c1ccccc1 ... 1.28
2. CC(=O)N1Cc2ccc(N(Cc3ccc(-c4nnc(C(F)F)o4)cn3)S(C)(=O)=O)cc2C1 ... 2.66
3. O=S(=O)(CCN1CCC(O)CC1)N(Cc1ccc(-c2nnc(C(F)F)o2)cc1)c1ccccc1 ... 1.87
4. O=S(=O)(CCN1CCOCC1)N(Cc1ccc(-c2nnc(C(F)F)o2)cc1)c1ccccc1 ... 1.76
5. CS(=O)(=O)N(Cc1ccc(-c2nnc(C(F)F)o2)cc1F)c1ccc(F)cc1 ... 1.40
6. C[C@@H]1CN(CCS(=O)(=O)N(Cc2ccc(-c3nnc(C(F)F)o3)cc2)c2ccccc2)C[C@H](C)N1C ... 1.18
7. O=C(CO)N1CC(N2CCC(S(=O)(=O)N(Cc3ccc(-c4nnc(C(F)F)o4)cc3)c3cccc(Cl)c3)CC2)C1 ... 1.50
8. O=S(=O)(C1CCN(C2CC(O)C2)CC1)N(Cc1ccc(-c2nnc(C(F)F)o2)cn1)c1ccccc1 (stereo not shown) ... 1.67
9. CS(=O)(=O)N(Cc1ccc(-c2nnc(C(F)F)o2)cc1F)c1ccc(C(F)(F)F)cc1 ... 2.00
10. O=S(=O)(C1CCCCC1)N(Cc1ccc(-c2nnc(C(F)F)o2)cc1F)c1ccccc1 ... 1.93
11. Cc1cccc(N(Cc2ccc(-c3nnc(C(F)F)o3)cc2)S(=O)(=O)C2CCN([C@H]3CC[C@@H](C(F)(F)F)CC3)CC2)c1 ... 2.82
12. O=S(=O)(C1CCOCC1)N(Cc1ccc(-c2nnc(C(F)F)o2)cn1)c1ccccc1 ... 1.11
13. O=S(=O)(CCN(Cc1ccccc1)Cc1ccccc1)N(Cc1ccc(-c2nnc(C(F)F)o2)cc1)c1ccccc1 ... 3.25
14. CS(=O)(=O)N(Cc1ccc(-c2nnc(C(F)(F)F)o2)cc1)c1cccnc1 ... 2.10
15. O=S(=O)(CCn1cnc(CO)c1)N(Cc1ccc(-c2nnc(C(F)F)o2)cc1)c1ccccc1 ... 1.54
16. O=S(=O)(CCN1CCC[C@H](O)C1)N(Cc1ccc(-c2nnc(C(F)F)o2)cc1)c1ccccc1 ... 1.76
17. CN1CCN(CCS(=O)(=O)N(Cc2ccc(-c3nnc(C(F)F)o3)cc2F)c2ccc(F)c(Cl)c2)CC1 ... 1.15
18. CS(=O)(=O)N(Cc1ccc(-c2nnc(C(F)F)o2)nc1)c1ccccc1 ... 3.12
19. CCN1CCN(CCS(=O)(=O)N(Cc2ccc(-c3nnc(C(F)F)o3)cc2)c2ccccc2)CC1 ... 1.84
20. COC(=O)C1CN(CCS(=O)(=O)N(Cc2ccc(-c3nnc(C(F)F)o3)cc2)c2ccccc2)C1 ... 1.78
21. CC(=O)N1CCN(CCS(=O)(=O)N(Cc2ccc(-c3nnc(C(F)F)o3)cc2F)c2ccc(F)c(Cl)c2)CC1 ... 1.23
22. Cc1ccc(N(Cc2ccc(-c3nnc(C(F)F)o3)cc2F)S(C)(=O)=O)cc1 ... 1.73

---

- experimental-target: human recombinant HDAC6 (Homo sapiens, UniProt Q9UBN7)
- Construct: purchased Calbiochem 382180
- Sequence (Q9UBN7 whole entry): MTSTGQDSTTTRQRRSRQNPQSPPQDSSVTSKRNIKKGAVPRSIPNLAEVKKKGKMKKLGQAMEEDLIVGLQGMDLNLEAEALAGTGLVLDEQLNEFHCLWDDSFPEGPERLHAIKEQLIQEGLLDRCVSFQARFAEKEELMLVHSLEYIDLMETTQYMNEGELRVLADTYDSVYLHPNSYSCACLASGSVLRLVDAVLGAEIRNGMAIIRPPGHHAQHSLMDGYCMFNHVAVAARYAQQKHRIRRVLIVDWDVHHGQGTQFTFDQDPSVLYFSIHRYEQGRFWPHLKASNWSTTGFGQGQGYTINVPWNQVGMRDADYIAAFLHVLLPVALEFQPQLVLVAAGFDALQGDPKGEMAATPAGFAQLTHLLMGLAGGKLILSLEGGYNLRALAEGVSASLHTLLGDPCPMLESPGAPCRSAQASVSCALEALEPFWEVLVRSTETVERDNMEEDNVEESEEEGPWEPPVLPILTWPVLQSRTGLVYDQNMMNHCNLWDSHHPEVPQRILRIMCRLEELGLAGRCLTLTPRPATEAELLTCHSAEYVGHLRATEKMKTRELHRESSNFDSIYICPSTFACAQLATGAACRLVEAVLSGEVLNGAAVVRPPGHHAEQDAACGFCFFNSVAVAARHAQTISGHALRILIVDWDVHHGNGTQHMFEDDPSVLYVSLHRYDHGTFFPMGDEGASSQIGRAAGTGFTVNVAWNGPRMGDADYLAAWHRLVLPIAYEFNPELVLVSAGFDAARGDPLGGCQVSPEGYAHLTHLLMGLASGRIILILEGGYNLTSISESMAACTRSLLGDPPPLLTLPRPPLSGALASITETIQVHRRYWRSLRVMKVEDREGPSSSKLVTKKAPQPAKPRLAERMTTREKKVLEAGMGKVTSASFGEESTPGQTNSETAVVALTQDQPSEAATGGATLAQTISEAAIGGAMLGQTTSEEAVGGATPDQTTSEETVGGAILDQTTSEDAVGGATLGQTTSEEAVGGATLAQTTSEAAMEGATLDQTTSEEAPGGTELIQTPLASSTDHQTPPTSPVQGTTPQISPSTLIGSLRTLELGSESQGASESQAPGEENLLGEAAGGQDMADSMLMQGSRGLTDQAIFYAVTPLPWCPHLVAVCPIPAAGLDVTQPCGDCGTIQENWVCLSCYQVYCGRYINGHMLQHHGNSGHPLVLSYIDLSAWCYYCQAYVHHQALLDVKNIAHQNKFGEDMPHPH
- assay-procedure: HDAC6 enzyme activity inhibition assay (HDAC Fluorimetric Drug Discovery Kit)
- Assay type: biochemical
- reported-conditions: HDAC1 vs HDAC6
Assign class by HDAC6 selectivity (fold): not lower than 2000 fold means y; lower than 2000 fold means n.

1) O=S(=O)(CCCN1CCCC1)N(Cc1ccc(-c2nnc(C(F)F)o2)cn1)c1ccc(F)c(Cl)c1 ... y
2) CS(=O)(=O)N(Cc1ccc(-c2nnc(C(F)F)o2)cn1)c1cccc(C(F)(F)F)c1 ... y
3) Cc1cccc(N(Cc2ccc(-c3nnc(C(F)F)o3)cn2)S(=O)(=O)C2CCN([C@H]3CC[C@H](C(F)(F)F)CC3)CC2)c1 ... n
4) CS(=O)(=O)N(Cc1ccc(-c2nnc(C(F)F)o2)cn1)c1cccnc1 ... y
5) CC(=O)N1Cc2ccc(N(Cc3ccc(-c4nnc(C(F)F)o4)cc3)S(C)(=O)=O)cc2C1 ... n
6) O=S(=O)(CCN1CCCOCC1)N(Cc1ccc(-c2nnc(C(F)F)o2)cc1)c1ccccc1 ... n
7) Cc1noc(C2CCN(CCS(=O)(=O)N(Cc3ccc(-c4nnc(C(F)F)o4)cc3)c3ccccc3)CC2)n1 ... n
8) CS(=O)(=O)N(Cc1ccc(-c2nnc(C(F)(F)F)o2)nc1)c1ccccc1 ... n
9) CN1CCC(S(=O)(=O)N(Cc2ccc(-c3nnc(C(F)F)o3)cn2)c2ccccc2)CC1 ... y
10) CC(=O)N1CC(N2CCC(S(=O)(=O)N(Cc3ccc(-c4nnc(C(F)F)o4)cn3)c3ccc(F)c(Cl)c3)CC2)C1 ... y
11) O=C(C1CC1)N1CC(N2CCC(S(=O)(=O)N(Cc3ccc(-c4nnc(C(F)F)o4)cc3)c3cccc(Cl)c3)CC2)C1 ... n
12) CN1CC(N2CCC(S(=O)(=O)N(Cc3ccc(-c4nnc(C(F)F)o4)cc3)c3cccc(Cl)c3)CC2)C1 ... y
13) O=S(=O)(CCN1CCC(F)CC1)N(Cc1ccc(-c2nnc(C(F)F)o2)cn1)c1ccc(F)c(Cl)c1 ... n
14) CCS(=O)(=O)N(Cc1ccc(-c2nnc(C(F)F)o2)cn1)c1cc(Cl)cc(Cl)c1 ... y
15) NC(=O)[C@@H]1C[C@@H](O)CN1CCS(=O)(=O)N(Cc1ccc(-c2nnc(C(F)F)o2)cn1)c1ccccc1 ... n
16) Cn1c(=O)n(C)c2cc(N(Cc3ccc(-c4nnc(C(F)F)o4)cc3)S(C)(=O)=O)ccc21 ... n
17) CS(=O)(=O)N1CCN(CCS(=O)(=O)N(Cc2ccc(-c3nnc(C(F)F)o3)cc2)c2ccccc2)CC1 ... y
18) O=S(=O)(CCN(Cc1ccccc1)Cc1ccccc1)N(Cc1ccc(-c2nnc(C(F)F)o2)cc1)c1ccccc1 ... n
19) CS(=O)(=O)N(Cc1ccc(-c2nnc(C(F)F)o2)cc1F)c1ccccc1F ... y
20) Cc1cccc(N(Cc2ccc(-c3nnc(C(F)F)o3)cn2)S(C)(=O)=O)c1 ... y
21) CS(=O)(=O)N(Cc1ccc(-c2nnc(C(F)F)o2)cc1F)c1ccc(F)cc1 ... y
22) CS(=O)(=O)N(Cc1ccc(-c2nnc(C(F)F)o2)cc1F)c1cccc(C(F)(F)F)c1 ... y
23) CS(=O)(=O)N(Cc1ccc(-c2nnc(C(F)(F)F)o2)cc1F)c1cccc(Cl)c1 ... n
24) CC(=O)N1CCN(CCS(=O)(=O)N(Cc2ccc(-c3nnc(C(F)F)o3)cc2F)c2ccc(F)c(Cl)c2)CC1 ... y

Data origin: patent US10538498B2
